Can you tell me Activity for the items I'm about to list?
STUDY TARGET: Protein cereblon/Wee1-like protein kinase (Homo sapiens, UniProt P30291+Q96SW2)
Sequence (P30291 whole entry, looked up): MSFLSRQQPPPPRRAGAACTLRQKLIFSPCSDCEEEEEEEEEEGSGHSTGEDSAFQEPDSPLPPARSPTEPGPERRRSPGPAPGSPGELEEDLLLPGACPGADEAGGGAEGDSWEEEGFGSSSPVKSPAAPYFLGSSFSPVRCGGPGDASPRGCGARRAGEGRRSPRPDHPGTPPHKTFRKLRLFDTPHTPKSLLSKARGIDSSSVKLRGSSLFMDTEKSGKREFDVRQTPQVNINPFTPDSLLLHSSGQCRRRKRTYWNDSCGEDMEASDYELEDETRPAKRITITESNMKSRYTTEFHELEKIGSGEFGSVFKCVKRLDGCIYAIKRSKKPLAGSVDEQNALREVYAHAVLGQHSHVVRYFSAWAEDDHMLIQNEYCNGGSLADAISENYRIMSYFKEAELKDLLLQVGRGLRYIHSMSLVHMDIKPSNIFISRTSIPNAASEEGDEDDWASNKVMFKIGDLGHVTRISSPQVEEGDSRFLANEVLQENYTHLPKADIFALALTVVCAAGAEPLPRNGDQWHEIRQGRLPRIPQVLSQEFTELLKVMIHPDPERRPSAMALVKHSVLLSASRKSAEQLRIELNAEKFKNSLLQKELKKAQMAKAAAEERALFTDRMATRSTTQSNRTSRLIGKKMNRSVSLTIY
Sequence (Q96SW2 whole entry, looked up): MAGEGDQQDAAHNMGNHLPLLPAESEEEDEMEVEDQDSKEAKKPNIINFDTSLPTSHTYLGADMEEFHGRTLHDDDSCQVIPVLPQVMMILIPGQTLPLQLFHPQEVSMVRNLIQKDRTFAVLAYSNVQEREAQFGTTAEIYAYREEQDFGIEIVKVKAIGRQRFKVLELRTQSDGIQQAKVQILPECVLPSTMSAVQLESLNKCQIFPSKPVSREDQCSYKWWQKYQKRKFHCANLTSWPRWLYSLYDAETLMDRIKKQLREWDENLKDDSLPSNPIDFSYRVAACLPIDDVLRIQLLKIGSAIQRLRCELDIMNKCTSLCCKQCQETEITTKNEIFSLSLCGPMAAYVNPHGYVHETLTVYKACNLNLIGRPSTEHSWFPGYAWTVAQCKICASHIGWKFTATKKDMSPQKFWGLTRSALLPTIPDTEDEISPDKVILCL
EXPERIMENT: PROTAC activity at CRBN/Wee1 in human MV4-11 cells assessed as residual Wee1 level at IC50 measured after 6 hrs by Western blot analysis (reference value: 100%)
Assay type: cell-based
One number for each entry, in %.

COMPOUND	UNIT SPEC	RESULT VALUE
C=CCn1c(=O)c2cnc(Nc3ccc(N4CCN(CC(=O)NCCOCCOCCOCCNc5cccc6c5C(=O)N(C5CCC(=O)NC5=O)C6=O)CC4)cc3)nc2n1-c1cccc(C(C)(C)O)n1 (stereo unspecified)	%	37

Parameter requested: Activity. Apply to each item below.
1. C=CCn1c(=O)c2cnc(Nc3ccc(N4CCN(CC(=O)NCCOCCOCCNc5cccc6c5C(=O)N(C5CCC(=O)NC5=O)C6=O)CC4)cc3)nc2n1-c1cccc(C(C)(C)O)n1 (stereo unspecified)
2. C=CCn1c(=O)c2cnc(Nc3ccc(N4CCN(CC(=O)NCCCCNc5cccc6c5C(=O)N(C5CCC(=O)NC5=O)C6=O)CC4)cc3)nc2n1-c1cccc(C(C)(C)O)n1 (stereo unspecified)
3. C=CCn1c(=O)c2cnc(Nc3ccc(N4CCN(CC(=O)NCCCCCNc5cccc6c5C(=O)N(C5CCC(=O)NC5=O)C6=O)CC4)cc3)nc2n1-c1cccc(C(C)(C)O)n1 (stereo unspecified)
4. C=CCn1c(=O)c2cnc(Nc3ccc(N4CCN(CC(=O)NCCCCC(=O)NCCNc5cccc6c5C(=O)N(C5CCC(=O)NC5=O)C6=O)CC4)cc3)nc2n1-c1cccc(C(C)(C)O)n1 (stereo unspecified)
5. C=CCn1c(=O)c2cnc(Nc3ccc(N4CCN(CC(=O)NCCCCC(=O)NCc5ccc(CNc6cccc7c6C(=O)N(C6CCC(=O)NC6=O)C7=O)cc5)CC4)cc3)nc2n1-c1cccc(C(C)(C)O)n1 (stereo unspecified)
6. C=CCn1c(=O)c2cnc(Nc3ccc(N4CCN(CC(=O)NCCCCCCNc5cccc6c5C(=O)N(C5CCC(=O)NC5=O)C6=O)CC4)cc3)nc2n1-c1cccc(C(C)(C)O)n1 (stereo unspecified)
7. C=CCn1c(=O)c2cnc(Nc3ccc(N4CCN(CC(=O)NCCOCCOCCOCCOCCNc5cccc6c5C(=O)N(C5CCC(=O)NC5=O)C6=O)CC4)cc3)nc2n1-c1cccc(C(C)(C)O)n1 (stereo unspecified)
8. C=CCn1c(=O)c2cnc(Nc3ccc(N4CCN(CC(=O)NCCOCCOCCOCCOCCOCCOCCOCCNc5cccc6c5C(=O)N(C5CCC(=O)NC5=O)C6=O)CC4)cc3)nc2n1-c1cccc(C(C)(C)O)n1 (stereo unspecified)

Completion:
[21, 21, 32, 22, 27, 49, 49, 21]

# map each compound to its Activity
1. C=CCn1c(=O)c2cnc(Nc3ccc(N4CCN(CC(=O)NCCOCCOCCOCCOCCOCCOCCNc5cccc6c5C(=O)N(C5CCC(=O)NC5=O)C6=O)CC4)cc3)nc2n1-c1cccc(C(C)(C)O)n1 (stereo unspecified)
2. C=CCn1c(=O)c2cnc(Nc3ccc(N4CCN(CCCCCNc5cccc6c5C(=O)N(C5CCC(=O)NC5=O)C6=O)CC4)cc3)nc2n1-c1cccc(C(C)(C)O)n1 (stereo unspecified)

Completion:
1: 33; 2: 24
